I'd appreciate it if you could supply pIC50 values for the items below.
target: rabbit reticulocyte 15-LO (Oryctolagus cuniculus); construct: rabbit reticulocyte 15-LO; from tissue; host or cells: rabbit reticulocytes; test: 15-LO inhibition, rabbit reticulocyte 15-LO with linoleic acid substrate, HPLC method of Auerbach et al.; type: biochemical; details: Table 5; read-out: 15-LO IC50
Sequence (P12530 whole entry): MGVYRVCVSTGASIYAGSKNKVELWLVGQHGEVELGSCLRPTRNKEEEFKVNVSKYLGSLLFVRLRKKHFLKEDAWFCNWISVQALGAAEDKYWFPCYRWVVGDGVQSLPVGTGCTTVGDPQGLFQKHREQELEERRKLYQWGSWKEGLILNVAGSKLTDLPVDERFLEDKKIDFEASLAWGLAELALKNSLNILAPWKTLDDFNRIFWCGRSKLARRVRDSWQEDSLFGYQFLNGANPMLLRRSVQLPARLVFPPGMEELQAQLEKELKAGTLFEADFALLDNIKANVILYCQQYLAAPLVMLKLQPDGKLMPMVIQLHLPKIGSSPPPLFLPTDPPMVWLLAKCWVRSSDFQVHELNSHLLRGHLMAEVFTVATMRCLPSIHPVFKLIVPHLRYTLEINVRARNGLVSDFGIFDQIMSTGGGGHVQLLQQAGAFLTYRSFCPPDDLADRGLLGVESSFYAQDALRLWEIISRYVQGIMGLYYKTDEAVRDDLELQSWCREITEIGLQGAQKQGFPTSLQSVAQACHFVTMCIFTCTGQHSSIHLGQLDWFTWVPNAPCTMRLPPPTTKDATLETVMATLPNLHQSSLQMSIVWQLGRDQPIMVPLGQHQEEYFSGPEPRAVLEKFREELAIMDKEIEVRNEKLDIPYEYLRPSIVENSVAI
One number for each entry, as −log10 of the molar value.

molecular-string | pIC50
CCCCCC#CCC#CCC#CCC#CCCCC(=O)O | 6.12

Okay, now this compound:
Exam item: If you can, please state the reported pIC50 value of Clc1ccc2c(c1)Nc1c(ccc3ccccc13)S2 .
Marked response: 5.70
